Listed here are compounds together with their documented TGI.
System: HOP-62 NSCLC
Assay: NCI tumour cell line growth inhibition, 48 h
Use µM as the unit, but write only the number.

Here are 2 compounds together with their reported answers.
{"compound": "CC/C=C/c1cc2c(c3[nH]ccc13)[C@@H](C)CC2C (stereo partly specified) (tested in a mixture with another compound)", "display-unit": "µM", "readout-value": 32.8}
{"compound": "N#C/C(=C/N1C(=O)/C(=C/c2ccc([N+](=O)[O-])cc2)SC1=S)c1nc2ccccc2s1", "display-unit": "µM", "readout-value": 7.32}

Data request, read-out TGI, for COc1ccc(N2C(=O)C3c4[nH]c5c(C)cccc5c4C4CCC(c5ccccc5)CC4C3C2=O)cc1 (stereo unspecified)
27.3

Data request, read-out TGI, for N=c1c2ccccc2nc2oc3ccccc3n12
88.2

* * *

System: UACC-62 melanoma
Experiment: NCI tumour cell line growth inhibition, 48 h; in the data active = GI50 below about 0.43 µM; inactive = the rest
I would appreciate it if you answered using one of these outcomes: t for active, f for inactive

Example cases with answers are listed next.
{"compound": "CC(=O)O[C@H]1[C@@H]2OC(=O)C3(CC3)C2C[C@H]2O[C@]2(C)CC/C=C(\\C)CCC[C@@H]1C (stereo not given in full)", "assigned-class": "f"}
{"compound": "COc1ccc2[nH]c(=O)c(/C=C/C(=O)c3ccccc3OC)cc2c1", "assigned-class": "f"}
{"compound": "O=C(Cc1ccc(OCc2ccccc2)cc1)NCc1ccc2c(c1)OCO2", "assigned-class": "f"}
{"compound": "CCOC(=O)C#Cc1c(C(=O)OCC)nnn1Cc1ccc(C(F)(F)F)cc1", "assigned-class": "f"}
{"compound": "NC(=O)c1cc(Cl)ccc1NC(=O)COc1ccccc1", "assigned-class": "f"}

Outcome? N=C(N)c1ccc(-c2ccc(-c3cccs3)o2)cc1
f

Outcome? C/C(=N\NC(=O)c1ccccc1N)c1ccccc1O
f

Outcome? Clc1ccc(-c2nc(-c3ccccc3)cn3ccnc23)cc1
f

Outcome? CCC(C)C1=NC(C(=O)N/C=C\c2c[nH]c3cc(Br)c(Br)cc23)(C(C)C)NC1=O (stereo not given)
f

Outcome? CC(C)CC(=O)[O-].CC(C)CC(=O)[O-].N.N.N.N.[Co+3].[O-][Cl+3]([O-])([O-])O.[O-][Cl+3]([O-])([O-])[O-]
f

* * *

Listed here are compounds together with their documented TGI.
Test system: CAKI-1 renal
Assay: NCI tumour cell line growth inhibition, 48 h

Here are 2 compounds together with their reported answers.
{"compound": "CCO/C(O)=C(/C(=N)N1CCOCC1)C(=O)Nc1cccc(Cl)c1", "TGI": "> 100 µM"}
{"compound": "CCC(C)C1=NC(C(=O)N/C=C\\c2c[nH]c3cc(Br)c(Br)cc23)(C(C)C)NC1=O (centres undefined)", "TGI": "26.8 µM"}

Data request, read-out TGI, for COC(=O)CCC(C)[C@H]1CCC2C3C(C[C@H](OC(C)=O)[C@@]21C)[C@@]1(C)CCC2(C[C@H]1C[C@H]3OC(C)=O)OOC1(CCC(C(C)(C)C)CC1)OO2 (some centres undefined)
> 100 µM

Data request, read-out TGI, for O=c1oc2ccccc2c(O)c1C(C/C(CCN1CCCC1)=N/O)c1ccccc1 (centres undefined)
> 100 µM

* * *

Listed here are molecules together with their documented TGI.
Test system: RPMI-8226 leukemia
Test: NCI tumour cell line growth inhibition, 48 h

Here are 6 molecules together with their reported answers.
{"molecule": "O=C(O)c1c[nH]c2cc(OCc3ccccc3)ccc2c1=O", "reported-endpoint": "TGI", "readout-value": "64.9 µM"}
{"molecule": "O=[N+]([O-])c1ccc2c3c1[C@H]1O[C@H]1c1cccc(c1-3)[C@@H]1O[C@H]21", "reported-endpoint": "TGI", "readout-value": "> 100 µM"}
{"molecule": "COc1ccc(-n2cnc3c(NCC(=O)O)ncnc32)cc1", "reported-endpoint": "TGI", "readout-value": "> 100 µM"}
{"molecule": "Cc1cnc(NC2CCOCC2)nc1-n1cnc(C(=O)N[C@H](CN)c2cc(F)cc(Cl)c2)c1", "reported-endpoint": "TGI", "readout-value": "30.4 µM"}
{"molecule": "C1CCC(C(CC2CCCCN2)C2CCCCC2)CC1 (stereo not given)", "reported-endpoint": "TGI", "readout-value": "5.56 µM"}
{"molecule": "O=C(O)c1ccccc1/C=C1\\Cc2ccccc2C1=O", "reported-endpoint": "TGI", "readout-value": "> 100 µM"}

Data request, read-out TGI, for CCC(C)C1=NC(C(=O)N/C=C\c2c[nH]c3cc(Br)c(Br)cc23)(C(C)C)NC1=O (stereo not given)
39 µM

Data request, read-out TGI, for CN(CCCN(C)Cc1ccc(Cl)c(Cl)c1)CCN1CCCC1
17.5 µM

Data request, read-out TGI, for C=C1C(=O)O[C@H]2[C@H]1CC/C(COC(=O)NCc1c[nH]c3ccc(Br)cc13)=C\CC[C@@]1(C)O[C@@H]21
3.57 µM

Data request, read-out TGI, for CC1(C)C2CCC(=O)C1C(OCc1ccccc1)C2 (stereo not given)
> 100 µM

* * *

Tested on: 786-0 renal
Test: NCI tumour cell line growth inhibition, 48 h
Listed here are molecules together with their documented GI50.

Data request, read-out GI50, for O=C(C1CC1)N1CC[C@@H](Cc2n[nH]c(=O)n2-c2ccc(-c3ccc4occc4c3)cc2)C1
12300 nM

Data request, read-out GI50, for CC1CN=C(c2cccc(-c3ccc(-c4ccccc4)o3)c2)N1 (stereo not drawn)
1840 nM

Data request, read-out GI50, for CCOC(=O)C#Cc1c(C(=O)OCC)nnn1Cc1ccc(C(F)(F)F)cc1
2580 nM

* * *

System: SK-MEL-5 melanoma
Test: NCI tumour cell line growth inhibition, 48 h
Listed here are compounds together with their documented log10(TGI).
Would you kindly interpret these values as log10 of TGI expressed in µM?

Here are 2 compounds together with their reported answers.
{"cpd-smiles": "Nc1nc(CCl)nc(N2CCOCC2)n1", "readout-value": 1.66}
{"cpd-smiles": "Cn1c2c(c3ccccc31)CCN(CCCN1CCN(c3cccc(Cl)c3)CC1)C2=O", "readout-value": 1.56}

Data request, read-out log10(TGI), for Cc1cc(NS(=O)(=O)c2ccc(NC(=O)c3ccc(Cl)c4c(Nc5ccc(S(N)(=O)=O)cc5)c5ccccc5nc34)cc2)no1
1.53

Data request, read-out log10(TGI), for Oc1cc(Cn2cnc3c(Cl)nc(Cl)nc32)ccc1C12CC3CC(CC(C3)C1)C2
1.51

Data request, read-out log10(TGI), for NC(N)=N/N=C\c1c(-c2cccc([N+](=O)[O-])c2)nc2sc(Cl)cn12
1.89

Data request, read-out log10(TGI), for C=C1C(=O)O[C@H]2[C@H]1CC/C(COC(=O)NCc1c[nH]c3ccc(Br)cc13)=C\CC[C@@]1(C)O[C@@H]21
0.48

* * *

System: CAKI-1 renal
Assay: NCI tumour cell line growth inhibition, 48 h
Listed here are compounds together with their documented TGI.
Use µM as the unit, but write only the number.

{"compound": "Cc1c2cccc(Sc3ccccc3)c2c2c3c(cccc13)[S+](c1ccccc1)C2 (stereo not given)", "test-target": "CAKI-1 renal", "display-unit": "µM", "readout-value": 11.4}

Next:
Data request, read-out TGI, for CC1[C@@H]2CC=C3C4CCC5Cc6nc7c(nc6C[C@@]5(C)C4CC(=O)[C@]32CO[C@@]1(O)C(O)CC(C)(C)O)CC1CCC2C3=C[C@H]4O[C@@]5(O[C@@](C)(CO)C[C@@H]5O)C(C)[C@@]4(O)[C@]3(C)[C@@H](O)CC2[C@]1(C)C7 (stereo not given in full)
0.417

* * *

Test system: SW-620 colon
Assay: NCI tumour cell line growth inhibition, 48 h; in the data active means GI50 below about 0.43 µM; inactive means the rest
I would appreciate it if you answered using one of these outcomes: yes for active, no for inactive

{"compound": "CC(C)=C[C@@H]1C[C@H](C)[C@H]2CC[C@H](C)c3c(O)c(OC4OCC(O)C(O)C4O)c(C)c1c32 (some centres undefined)", "assigned-class": "no"}

Outcome? Oc1ccc(Cl)cc1-c1cc(-c2ccc(Cl)cc2)n[nH]1
no

Outcome? Nc1cc2ccccc2c(O)c1O
no

Outcome? CS(=O)(=O)OCCn1c2c(c3c(O)cccc31)C(=O)c1ccccc1-2
no

Outcome? COC(=O)[C@@H](C)C[C@H](Cc1ccccc1)NC(=O)c1nc([C@@H](C[C@H](C(C)C)N(C)C(=O)[C@@H](NC(=O)[C@H]2CCCCN2C)C(C)C)OC(C)=O)sc1C(C)C
yes

Outcome? CC(C)CC(=O)[O-].CC(C)CC(=O)[O-].N.N.N.N.[Co+3].[O-][Cl+3]([O-])([O-])O.[O-][Cl+3]([O-])([O-])[O-]
no

* * *

Test system: DLD-1 colon
Experiment: NCI tumour cell line growth inhibition, 48 h
Listed here are molecules together with their documented TGI.
Use µM as the unit, but write only the number.

{"molecule": "CC/C=C/c1cc2c(c3[nH]ccc13)[C@@H](C)CC2C (stereo not given in full) (tested in a mixture with another compound)", "test-target": "DLD-1 colon", "TGI (µM)": 26.3}
{"molecule": "C/C(=C\\COc1ccc2ccc(=O)oc2c1)C1=CC(=O)C(C)(C)O1", "test-target": "DLD-1 colon", "TGI (µM)": 30.8}
{"molecule": "O=C(O)CCC(=O)N1C/C(=C\\c2ccccc2)C(=O)/C(=C/c2ccccc2)C1", "test-target": "DLD-1 colon", "TGI (µM)": 5.06}

Data request, read-out TGI, for Cc1nc2c(nc1C)C(=O)C1=C(C2=O)C2C=CC1CC2
21.6
